ASSAY_INFO: Rat Early Pharmacokinetic (EPK) study
Format: in vivo
STATED_CONDITIONS: male, Sprague-Dawley, blood, 3 mg/kg PO, PG (propylene glycol)
Method: Male Sprague-Dawley rats were dosed via oral (PO) gavage in the detailed formulation. Blood samples were collected from the animals at 6 timepoints out to 4 hours post-dose. Pharmacokinetic analysis was performed on the LC-MS/MS measured concentrations for each timepoint of each compound.
RECORDED_ENDPOINT: Tmax

GET /value?item= O=C1CN(C(=O)CC(c2ccccc2)c2ccccc2)CCN1 &field=Tmax returns 15 min

---

System: SNL L5/L6 rats
ASSAY_INFO: L5/L6 spinal nerve ligation (SNL) Chung pain model, tactile allodynia (von Frey)
Type: in vivo, rat
STATED_CONDITIONS: 2 hours after drug treatment
From the text: The Spinal Nerve Ligation is an animal model representing peripheral nerve injury generating a neuropathic pain syndrome. In this model experimental animals develop the clinical symptoms of tactile allodynia and hyperalgesia. L5/L6 Spinal nerve ligation (SNL) injury was induced using the procedure of Kim and Chung (Kim et al., Pain 50:355-363 (1992)) in male Sprague-Dawley rats (Harlan; Indianapolis, Ind.) weighing 200 to 250 grams. […]
RECORDED_ENDPOINT: Rat SNL Tactile Allodynia (% Antiallodynia) (%)
Your answer is read as %, so omit the unit and give the number.

O=C1CN(C(=O)CC(c2ccc(F)cc2)c2ccc(F)cc2)CCN1 : 10
CC1(C)C(=O)NCCN1C(=O)CC(c1ccc(F)cc1)c1ccc(F)cc1 : 8
O=C1CN(C(=O)CC(c2ccc(Cl)cc2)c2ccc(Cl)cc2)CCN1 : 49
O=C1CN(C(=O)C(c2ccccc2)c2ccccc2)CCN1 : 9
O=C1CN(C(=O)NC(c2ccccc2)c2ccccc2)CCN1 : 19

Attention now shifts to the item below.
Note to self: Rat SNL Tactile Allodynia (% Antiallodynia) of O=C1CN(C(=O)C=C(c2ccccc2)c2ccccc2)CCN1 with SNL L5/L6 rats was 24
